target or system: T1, 4H1845-bH
T1 chain: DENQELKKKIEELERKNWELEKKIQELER
test details: two-hybrid library CCNG1;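 note: natural log of median RNA to DNA barcode read ratio; higher means stronger binding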

binder	interaction score
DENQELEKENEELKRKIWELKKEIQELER [4H1257-bH]	-1.83
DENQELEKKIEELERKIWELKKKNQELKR [4H1328-bH]	-0.384
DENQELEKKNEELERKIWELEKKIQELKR [4H1446-bH]	0.192
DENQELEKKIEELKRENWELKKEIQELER [4H1369-bH]	-0.792
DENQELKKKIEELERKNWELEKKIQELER [4H1845-bH]	0.142
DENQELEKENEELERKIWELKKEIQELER [4H1193-bH]	-0.0802
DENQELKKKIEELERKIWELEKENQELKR [4H1828-bH]	-0.21
